Listing of recorded fraction ligated by entry.
B1: F1*; the commonest letter at each place (parent)
chain: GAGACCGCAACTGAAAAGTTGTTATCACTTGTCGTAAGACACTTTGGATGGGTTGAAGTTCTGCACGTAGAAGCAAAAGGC

- Variants of: B1
- Test details: fraction ligated after 30 min (ligated reads / total reads); higher = more ligase activity
- Condition notes: with F1*sub RNA substrate (template-directed ligation), 42 °C
A bare number is all that is needed in reply.

Supply reported fraction ligated belonging to this variant: GAGACCGCAACTGAAAAGTTGTAATCACTTGTCGGAAGACACTTTGGATGGGTTGAAGTTCTGCACGTAGAAGCAAAAGGC
0.817

Provide measured fraction ligated value, entry: GAGACCGCAACTGAAAAGTTGTTATCACTTTTCGTAAGATACTTTGGATGGGTTGAAGTTCTGCACGTAGAAGCAAAAGGC
0.829

Provide only the value of recorded fraction ligated for GAGACCGCAACTGAAAAGTTGTTATCACTCGTCGTAAGACACTTTGGCTGGGTTGAAGTTCTGCACGTAGAAGCAAAAGGC
0.757

Indicate the recorded fraction ligated value for this variant: GAGACCGCAACTGAAAAGTTGTTATCACTTGTCGTAAGACACTCTGTATGGGTTGAAGTTCTGCACGTAGAAGCAAAAGGC
0.152

FYI, the data here is from the supplement of paper PMC6755084.
